experiment: Solubility of the compound; format: physicochemical
experimental-endpoint: solubility

The following compounds have reported results that may help.
O=C(/C=C/c1ccc([N+](=O)[O-])cc1)c1ccc2ccccc2c1 = soluble
COc1ccc(C(=O)/C=C/c2ccc3c(c2)OCO3)c(OC)c1 = soluble
O=C(/C=C/c1cccc2ccccc12)c1ccc2c(c1)OCO2 = soluble
COc1ccc(/C=C/C(=O)c2ccc3c(c2)OCO3)c(OC)c1OC = soluble
O=C(/C=C/c1ccc2ccccc2c1)c1ccc(Cl)s1 = soluble

For each of the compounds below, state solubility.
1. COc1cc(OC)c(/C=C/C(=O)c2ccc3ccccc3c2)c(OC)c1
2. O=C(/C=C/c1cccs1)c1ccc2c(c1)OCO2
3. COc1cc(OC)c(C(=O)/C=C/c2ccc3c(c2)OCO3)cc1OC
4. COc1cc(/C=C/C(=O)c2ccc(-n3ccnc3)cc2)ccc1OCc1ccccc1
5. O=C(/C=C/c1c(Cl)cccc1Cl)c1ccc2ccccc2c1
6. O=C(/C=C/c1ccc(F)cc1)c1ccc2ccccc2c1
7. CCCCOc1ccc(/C=C/C(=O)c2ccc3ccccc3c2)cc1

1: soluble; 2: soluble; 3: soluble; 4: soluble; 5: soluble; 6: soluble; 7: soluble

For each of the compounds below, state solubility.
1. COc1ccc(C(=O)/C=C/c2ccc(OCc3ccccc3)c(OC)c2)c(OC)c1
2. COc1ccc(/C=C/C(=O)c2ccc3ccccc3c2)cc1
3. O=C(/C=C/c1ccc(-c2cc(C(F)(F)F)ccc2Cl)o1)c1ccc2c(c1)OCO2
4. O=C(/C=C/c1ccc(Cl)cc1Cl)c1ccc2ccccc2c1

1. soluble
2. soluble
3. soluble
4. soluble

* * *

molecular target: Low molecular weight protein-tyrosine phosphatase A (Mycobacterium tuberculosis); assay: Inhibition of Mycobacterium tuberculosis PTP-A using p-nitrophenyl phosphate as substrate at 25 uM measured for 10 mins by spectrofluorimetry
Exercise: for every item that follows, state its recorded inhibition.
One number for each entry, in %.

COc1cc(OC)c(/C=C/C(=O)c2ccc3c(c2)OCO3)c(OC)c1 = 5
COc1cc(/C=C/C(=O)c2ccc(-n3ccnc3)cc2)ccc1OCc1ccccc1 = 38

Lab note: next compound to report on.
Under Low molecular weight protein-tyrosine phosphatase A (Mycobacterium tuberculosis), report inhibition for O=C(/C=C/c1ccc(-c2cc(C(F)(F)F)ccc2Cl)o1)c1ccc2c(c1)OCO2
36

* * *

Exercise: for every item that follows, state its recorded inhibition.
biological target: Low molecular weight protein-tyrosine phosphatase A (Mycobacterium tuberculosis) (UniProt P9WIA1); test: Inhibition of Mycobacterium tuberculosis PTP-A using p-nitrophenyl phosphate as substrate at 25 uM measured for 10 mins by spectrofluorimetry
Answers are plain numbers, in %.

The following molecules have reported results that may help.
COc1cc(/C=C/C(=O)c2ccc(Br)cc2)ccc1OCc1ccccc1 = 63
O=C(/C=C/c1ccc2c(c1)OCO2)c1ccc2ccccc2c1 = 13
COc1cccc(/C=C/C(=O)c2ccc3c(c2)OCO3)c1 = 10
COc1cc(/C=C/C(=O)c2ccc(Cl)s2)ccc1OCc1ccccc1 = 5
O=C(/C=C/c1ccc([N+](=O)[O-])cc1)c1ccc2ccccc2c1 = 18
Cc1ccc(/C=C/C(=O)c2ccc3ccccc3c2)o1 = 30
O=C(/C=C/c1c(Cl)cccc1Cl)c1ccc2ccccc2c1 = 16
COc1cccc(C(=O)/C=C/c2ccc3ccccc3c2)c1 = 0

Complete the entry with inhibition for O=C(/C=C/c1c(Cl)cccc1Cl)c1ccc2c(c1)OCO2
13

* * *

Molecular target: Phosphotyrosine-protein phosphatase PTPB (Mycobacterium tuberculosis) (UniProt P96830)
Sequence (whole entry): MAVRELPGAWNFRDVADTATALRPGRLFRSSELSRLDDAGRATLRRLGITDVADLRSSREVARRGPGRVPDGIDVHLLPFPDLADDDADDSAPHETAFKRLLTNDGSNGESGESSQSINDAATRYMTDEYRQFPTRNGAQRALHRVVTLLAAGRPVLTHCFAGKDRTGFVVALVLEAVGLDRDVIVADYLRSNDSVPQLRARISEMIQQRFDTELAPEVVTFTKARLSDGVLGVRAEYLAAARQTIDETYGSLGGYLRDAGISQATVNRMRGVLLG
Assay: Inhibition of Mycobacterium tuberculosis PTP-B using p-nitrophenyl phosphate as substrate at 25 uM measured for 10 mins by spectrofluorimetry
experimental-endpoint: inhibition (%)
One number for each entry, in %.

O=C(/C=C/c1ccc2c(c1)OCO2)c1ccc([N+](=O)[O-])cc1 = 34
COc1cc(/C=C/C(=O)c2ccc3c(c2)OCO3)ccc1O = 0
COc1ccc(/C=C/C(=O)c2ccc3c(c2)OCO3)cc1OC = 0
O=C(/C=C/c1cccc2ccccc12)c1ccc2ccccc2c1 = 0
O=C(/C=C/c1ccccc1[N+](=O)[O-])c1ccc2ccccc2c1 = 32

For each of the compounds below, state inhibition.
1. COc1ccc(/C=C/C(=O)c2ccc3c(c2)OCO3)cc1
2. O=C(/C=C/c1ccccc1F)c1ccc2c(c1)OCO2
3. O=C(/C=C/c1cccs1)c1ccc2c(c1)OCO2
4. O=C(/C=C/c1ccc(Cl)c(Cl)c1)c1ccc2ccccc2c1

1: 11; 2: 0; 3: 0; 4: 28

For each of the compounds below, state inhibition.
1. COc1cc(OC)cc(C(=O)/C=C/c2ccc3ccccc3c2)c1
2. COc1ccc(OC)c(/C=C/C(=O)c2ccc3ccccc3c2)c1
3. COc1ccc2nc(Cl)c(/C=C/C(=O)c3ccc4c(c3)OCO4)cc2c1
4. O=C(/C=C/c1cccc(Cl)c1)c1ccc2ccccc2c1
5. O=C(/C=C/c1cccc2ccccc12)c1ccc2c(c1)OCO2
6. O=C(/C=C/c1ccccc1Cl)c1ccc2c(c1)OCO2
7. O=C(/C=C/c1ccc(Cl)cc1Cl)c1ccc2c(c1)OCO2

1. 10
2. 0
3. 0
4. 0
5. 0
6. 0
7. 0

* * *

Molecular target: Low molecular weight protein-tyrosine phosphatase A (Mycobacterium tuberculosis, UniProt P9WIA1)
Sequence (P9WIA1 whole entry): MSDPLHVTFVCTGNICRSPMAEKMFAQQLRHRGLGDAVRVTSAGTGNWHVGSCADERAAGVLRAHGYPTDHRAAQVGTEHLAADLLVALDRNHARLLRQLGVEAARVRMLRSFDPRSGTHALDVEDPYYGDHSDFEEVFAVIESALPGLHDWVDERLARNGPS
Experiment: Inhibition of Mycobacterium tuberculosis PTP-A using p-nitrophenyl phosphate as substrate measured for 10 mins by spectrofluorimetry
experimental-endpoint: IC50 (µM)
One number for each entry, in µM.

The following compounds have reported results that may help.
COc1ccc(/C=C/C(=O)c2ccc3ccccc3c2)cc1 = 93
O=C(/C=C/c1cccc(C(F)(F)F)c1)c1ccc2c(c1)OCO2 = 155

For each of the compounds below, state IC50.
1. O=C(/C=C/c1ccc([N+](=O)[O-])cc1)c1ccc2c(c1)OCO2
2. COc1cc(/C=C/C(=O)c2ccc(Br)cc2)ccc1OCc1ccccc1
3. O=C(/C=C/c1cccc2ccccc12)c1ccc2ccccc2c1
4. O=C(/C=C/c1ccc(Cl)cc1Cl)c1ccc2c(c1)OCO2

[74, 302, 93, 407]
